// provenance: patent US20170355757A1

- SYSTEM: T1, human C5 R885H-mmh (human, UniProt P01031 19-1676)
- T1 construct: also called human C5 variant R885H
- PROTOCOL: SPR, mAb captured via anti-hFc, 25C
QUANTITY_NAME: kon

H4H12175P (antibody, human IgG4, V domains shown, Human IgG4 Fc with S108P hinge mutation (H4H)) VH: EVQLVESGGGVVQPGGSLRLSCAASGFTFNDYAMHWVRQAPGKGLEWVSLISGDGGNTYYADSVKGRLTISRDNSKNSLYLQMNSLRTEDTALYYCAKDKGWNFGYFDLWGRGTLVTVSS VL: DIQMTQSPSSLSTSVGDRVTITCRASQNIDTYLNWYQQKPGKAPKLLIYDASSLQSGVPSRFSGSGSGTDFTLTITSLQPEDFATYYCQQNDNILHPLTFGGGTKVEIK
181000 M⁻¹ s⁻¹

Kindly review the next binder as well.
Exercise: Entry under review: H4H12163P (antibody, human IgG4, V domains shown, Human IgG4 Fc with S108P hinge mutation (H4H)) VH: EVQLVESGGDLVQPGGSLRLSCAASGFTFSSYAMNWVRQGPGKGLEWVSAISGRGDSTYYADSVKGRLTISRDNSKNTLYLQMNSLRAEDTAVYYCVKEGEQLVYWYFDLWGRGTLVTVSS VL: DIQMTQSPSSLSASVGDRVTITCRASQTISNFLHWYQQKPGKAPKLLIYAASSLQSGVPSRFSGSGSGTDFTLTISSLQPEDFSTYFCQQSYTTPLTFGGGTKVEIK . Reported kon?
Solution: 672000 M⁻¹ s⁻¹
